- System: Clostridium sporogenes DSM 1664
- method_notes: fold change of Tryptamine concentration vs plate DMSO controls (fold change (ratio)); higher = more amine produced, active = hit call of the paper (significant change in both replicates, either direction);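 for the amine columns active = adjusted P below 0.05 in both replicates with a change the same way and a mean fold change under 0.8 or over 1.25; inactive = the rest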
- test_conditions: incubation time: 27 h, anaerobic, 37 °C
Structures can show the parent of a compound that is named as a salt.
Labels: True = active, False = inactive

- compound: "O=C1NCN(c2ccccc2)C12CCN(CCCC(c1ccc(F)cc1)c1ccc(F)cc1)CC2 [Fluspirilene] (20 µM)"
  discrete_label: "False"
- compound: "CCCCNc1cc(C(=O)O)cc(S(N)(=O)=O)c1Oc1ccccc1 [Bumetanide] (20 µM)"
  discrete_label: "False"
- compound: "CC(C)(c1cc(Br)c(O)c(Br)c1)c1cc(Br)c(O)c(Br)c1 (20 µM)"
  discrete_label: "True"
- compound: "CCN1CCCC(OC(=O)C(c2ccccc2)c2ccccc2)C1 (stereo not drawn) [Piperidolate hydrochloride] (20 µM)"
  discrete_label: "False"
- compound: "c1coc(CNc2ncnc3[nH]cnc23)c1 [Kinetin] (20 µM)"
  discrete_label: "False"
- compound: "O=C(O[C@@H]1C[C@@H]2C[C@H]3C[C@H](C1)N2CC3=O)c1c[nH]c2ccccc12 [Dolasetron mesilate] (20 µM)"
  discrete_label: "False"
- compound: "NCc1ccccc1CC(=O)N[C@@H]1C(=O)N2C(C(=O)O)=C(CSc3nnnn3CC(=O)O)CS[C@H]12 [Ceforanide] (20 µM)"
  discrete_label: "True"
- compound: "CN(C)CC/C=C1/c2ccccc2COc2ccc(CC(=O)O)cc21 [Olopatadine hydrochloride] (20 µM)"
  discrete_label: "False"

* * *

# reported fold change of Tryptamine concentration; entries follow
- Tested on: Clostridium sporogenes DSM 1664
- method_notes: fold change of Tryptamine concentration vs plate DMSO controls (fold change (ratio)); higher = more amine produced, active = hit call of the paper (significant change in both replicates, either direction)
- test_conditions: incubation time: 27 h, anaerobic, 37 °C
Where a name gives a salt, the structure may show the parent alone.
measured_attribute: fold change of Tryptamine concentration

- molecule: "CN1CCC(=C2c3ccccc3C=Cc3ccccc32)CC1 [Cyproheptadine hydrochloride] (20 µM)"
  measured_attribute: "fold change of Tryptamine concentration"
  readout_value: 1.18
- molecule: "Cc1ccc(C(=O)c2cc(O)c(O)c([N+](=O)[O-])c2)cc1 [Tolcapone] (20 µM)"
  measured_attribute: "fold change of Tryptamine concentration"
  readout_value: 0.908
- molecule: "NS(=O)(=O)c1cc(Cl)c(Cl)c(S(N)(=O)=O)c1 [Dichlorphenamide] (20 µM)"
  measured_attribute: "fold change of Tryptamine concentration"
  readout_value: 0.966
- molecule: "C[C@H]1O[C@H](O[C@H]2[C@H](O)[C@@H](O)[C@@H](O[C@@H]([C@H](O)[C@@H](O)C=O)[C@H](O)CO)O[C@@H]2CO)[C@H](O)[C@@H](O)[C@@H]1N[C@H]1C=C(CO)[C@@H](O)[C@H](O)[C@H]1O [Acarbose] (20 µM)"
  measured_attribute: "fold change of Tryptamine concentration"
  readout_value: 1.02
- molecule: "Cc1onc(-c2c(Cl)cccc2Cl)c1C(=O)N[C@@H]1C(=O)N2[C@@H]1SC(C)(C)[C@@H]2C(=O)O [Dicloxacillin sodium salt hydrate] (20 µM)"
  measured_attribute: "fold change of Tryptamine concentration"
  readout_value: 0.0119
- molecule: "CC(C)COCC(CN(Cc1ccccc1)c1ccccc1)N1CCCC1 (stereo unspecified) [Bepridil hydrochloride] (20 µM)"
  measured_attribute: "fold change of Tryptamine concentration"
  readout_value: 0.913
